Test system: C2A
MEASUREMENT NOTES: qHTS profiling for inhibitors of Plasmodium falciparum proliferation (AID 504749); note: nearly all actives have a fitted effect of over 60% in size
STATED CONDITIONS: P. falciparum in erythrocytes, SYBR Green DNA, 72 h; series mostly up to 28.7 µM
Description: NIH National Institute of Allergy and Infectious Diseases [NIAID] NIH Chemical Genomics Center [NCGC] […] Because mature erythrocytes lack DNA, only Plasmodium-derived DNA is detected. NCGC Assay Protocol Summary: The SYBR Green viability assay was adapted from a method described previously (Plouffe et al., 2008). […] The following morning, fluorescence intensity at 485(14) nm excitation and 535(25) nm emission wavelengths was measured on an EnVision (Perkin Elmer) plate reader. […]
Inconclusive results are not listed. The source made the active and inactive calls. Calls come from the whole dose curve; as a rule, active = well fitted inhibition curve with a large enough effect; inconclusive = small, poorly fitted or top-dose-only effect; inactive = flat fitted curve, though single readings scatter.
Outcome codes: YES (active), NO (inactive)

O=[N+]([O-])c1cc(I)c(O)c(I)c1: NO
Oc1cccc[c]1[Hg][Cl]: YES
CC(=O)OC1CN2CCC1CC2 (stereo not drawn): NO
COc1ccc2c3c1O[C@H]1C(=O)CC[C@H]4[C@@H](C2)N(C)CC[C@]314: NO
O=Cc1ccco1: NO
O=C(O)C(Cl)(Cl)Cl: NO
CCC(=O)O[C@@](Cc1ccccc1)(c1ccccc1)[C@@H](C)CN(C)C: NO
Oc1cc(Cl)c(Cl)cc1Cl: NO
COc1ccc(OC)c(C(O)C(C)N)c1 (stereo not drawn): NO
CCCCCCCCCC(=O)O[C@H]1CC[C@H]2[C@@H]3CCC4=CC(=O)CC[C@]4(C)[C@H]3CC[C@]12C: NO
O=C1CCO1: NO
O=P(O)(O)C(Cl)(Cl)P(=O)(O)O: NO
c1cc2c(c(NC3=NCCN3)c1)CCCC2: NO

====

Test system: C2A
MEASUREMENT NOTES: qHTS profiling for inhibitors of Plasmodium falciparum proliferation (AID 504749); note: nearly all actives have a fitted effect of over 60% in size
STATED CONDITIONS: P. falciparum in erythrocytes, SYBR Green DNA, 72 h; series mostly up to 28.7 µM
Results filed as inconclusive are left out. Active and inactive are the calls of the source. The call rests on the fitted dose curve; in most records, active means well fitted inhibition curve with a large enough effect; inconclusive means small, poorly fitted or top-dose-only effect; inactive means flat fitted curve, though single readings scatter.
Labels: y (active), n (inactive)

CN1CCCC(=C(c2cccs2)c2cccs2)C1: n
C[C@]12CCC(=O)C[C@@H]1CC[C@@H]1[C@@H]2CC[C@]2(C)[C@@H](O)CC[C@@H]12: n
N#CN: n
COC1=CC=C2[C@H]3Cc4ccc(OC)c5c4[C@@]2(CCN3C)[C@H]1O5: n
O=C1CCCCC1CN1CCCCC1 (stereo not drawn): n
CCC(N)Cc1c[nH]c2ccccc12 (stereo not drawn): n
ClCC1CO1 (stereo not drawn): n
CN1C2CCC1CC(OC(c1ccccc1)c1ccc(Cl)cc1)C2 (stereo not drawn): y

====

MEASUREMENT NOTES: Cell Viability - LYMP2-010 (AID 981);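 note: cells exposed to compound for 24 hours at 37 °C; nearly all actives have a fitted effect of over 55% in size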
STATED CONDITIONS: LYMP2-010 lymphoblastoid cell viability, qHTS; series mostly up to 92.2 µM
Text: NIH Chemical Genomics Center [NCGC] NIH Molecular Libraries Screening Centers Network [MLSCN] National Institutes of Environmental Health Sciences [NIEHS] National Toxicology Program [NTP] We have developed a 1536-well cell-based assay for quantitative high throughput screening (qHTS) against a number of cell lines to determine in vitro cytotoxicity of small molecules. […] 8. Detection; Luminescence; Viewlux plate reader […]
Records with an inconclusive call do not appear. Active and inactive are the calls of the source. Calls come from the whole dose curve; as a rule, active = well fitted cell-killing curve with a large enough effect; inconclusive = small, poorly fitted or top-dose-only effect; inactive = flat fitted curve, though single readings scatter.
Labels: True = active, False = inactive

CC(C)CCON=O: False
O=C1C=CC(=O)C=C1: True
[Cl-].[Cl-].[Hg+2]: True
CCOC(=O)c1ccccc1C(=O)OCC: False
COC1=CC(=O)O[C@@H](/C=C/c2ccccc2)C1: False
CCCCCCCCOC(=O)c1ccccc1C(=O)OCCCCCCCC: False
ClCC1CO1 (configuration not stated): False
C[C@H]1CC[C@@H]2[C@@H](C)[C@H]3[C@H](C[C@H]4[C@@H]5CC=C6CC(O[C@@H]7O[C@H](CO)[C@H](O)[C@H](O[C@@H]8O[C@H](CO)[C@@H](O)[C@H](O)[C@H]8O)[C@H]7O[C@H]7O[C@@H](C)[C@H](O)[C@@H](O)[C@H]7O)CC[C@]6(C)[C@H]5CC[C@]34C)N2C1 (some centres not stated): True
O=[N+]([O-])c1ccccc1: False
CC(C)(C)c1cc(O)ccc1O: True
ClC(Cl)(Cl)Cl: False
C=CCN=C=S: False

# credit: PubChem BioAssay (NCATS)
